Tested on: A498 renal
Method Description: NCI tumour cell line growth inhibition, 48 h; in the data active means GI50 below about 0.43 µM; inactive means the rest
Answer with one of the outcomes given here: active, inactive

Use the examples below as a reference point.
1. COc1ccc(-n2c3c(c4c(CN(C)C)c(O)c(C)cc42)CCc2ccccc2C3=O)cc1: inactive
2. COc1ccc2[nH]cc(-c3nc(-c4c[nH]c5ccncc45)cs3)c2c1: inactive
3. COc1ccc(-c2csc3c2-n2cccc2C3=O)cc1O: inactive

QUERY: Recorded test outcome, item Cc1cn2c(=O)n(c1=O)Cc1ccccc1C2
RESULT: inactive

QUERY: Recorded test outcome, item Cc1cc(NC(=O)NC(=O)c2ccccc2NC(=O)CN)ccc1Oc1ncc(Br)cn1
RESULT: active

QUERY: Recorded test outcome, item COc1cc(/C=C2\C(=O)Nc3ccccc32)cc(OC)c1OC
RESULT: inactive

* * *

System: HCT-116 colon
Method Description: NCI tumour cell line growth inhibition, 48 h
Label rule, in plain words: TGI of 8 µM and up is Y, under 8 µM is N.

1. COc1cc2c3c(n(C)c(=O)c2cc1OC)-c1cc2c(cc1/C3=C/[C@H](N)CCCCN)OCO2: N
2. CC(=O)OC12CC(C)C3(O)C4C=C(C)C(=O)[C@@]4(O)CC(CO)=C[C@H]3C1C2(C)C (stereo partly specified): Y
3. CC(C)C(C/C=C1\CC(CO)(COC(=O)CC(C(C)C)C(C)C)OC1=O)C(C)C (stereo unspecified): Y
4. CN(C)CC(NC(NCS)C(=O)NCCNc1ccc(NCCNC(=O)C(NCS)NC(CN(C)C)OCCl)c2c1C(=O)c1c(O)ccc(O)c1C2=O)OCCl (stereo unspecified): N
5. C[Si]12OCCCN(CCO1)CCO2: Y
6. COC(=O)CCN(CCC(=O)OC)C1CC1: Y
7. OCc1ccc(Oc2c3ccccc3nc3occc23)cc1: Y
8. CNC(=O)OCc1[nH]ccc2c(C)c3nc4ccc(OC)cc4c3cc12: Y

QUERY: Given the entry C#CCOC(=O)C(N)CCCN=C(N)N (stereo unspecified) , answer whether its TGI meets or surpasses 8 µM.
RESULT: Y

QUERY: Given the entry N#C[C@H]1Nc2ccccc2[C@@H](O)C1O (stereo partly specified) , answer whether its TGI meets or surpasses 8 µM.
RESULT: Y

* * *

Tested on: HOP-18 NSCLC
Method Description: NCI tumour cell line growth inhibition, 48 h
The following molecules are listed with their measured TGI values.
The figure you give is taken to be in µM; do not add the unit.

1. COc1ccc(C2=CN3CCC[C@H]3C=C2c2cc(O)c(OC)c(OC)c2)cc1OC: 0.0504
2. Cc1cc(N=C2C=C(Nc3cc(C)on3)C(=O)c3ccccc32)no1: 92.2

QUERY: Using the record for CCC[CH2][Sn]1([CH2]CCC)[O]C(=O)CN=Cc2ccccc2[O]1 , report its TGI.
RESULT: 1.36

* * *

The following molecules are listed with their measured TGI values.
System: SN12C renal
Method Description: NCI tumour cell line growth inhibition, 48 h

Here's what some known entries look like.
1) COc1ccc(-c2ccccc2)cc1-c1c(Nc2cc(Cl)cc(Cl)c2O)c(=O)c1=O: > 50 µM
2) Cc1nnc2sc(N/N=C/c3ccccc3)nn12: > 100 µM
3) CC(C)CCC[C@@H](C)[C@H]1CCC2C3=CCC4C(=O)C=CC(=O)C4C3CC[C@@]21C (stereo partly drawn): > 100 µM
4) Cc1cc2c(cc1Br)C1(C)CCC(C)C1(C)O2 (stereo not drawn): 80.9 µM
5) Cc1cc(N=C2C=C(Nc3cc(C)on3)C(=O)c3ccccc32)no1: > 100 µM

Continue with the next molecule.
QUERY: Which measured TGI belongs to O=C(c1ccccc1)N1C(=S)N(c2ccc([N+](=O)[O-])cc2)C(=Nc2ccccc2)C1=Nc1ccccc1 , tested on SN12C renal?
RESULT: > 100 µM

* * *

The following compounds are listed with their measured TGI values.
Test system: NCI/ADR-RES ovarian
Method Description: NCI tumour cell line growth inhibition, 48 h

Here's what some known entries look like.
1. CC(=O)NC1=C(C)C(=O)c2c(nc3n2CC[C@H]3OC(C)=O)C1=O: 15.6 µM
2. O=C(Nc1cccc(-n2ccc3c(NC(=O)c4ccccc4)nccc32)c1)c1cc(N2CCOCC2)cc(C(F)(F)F)c1: > 100 µM
3. CC(C)(C)c1cc(C2COC(=O)COCC(=O)OCCOCCOCCO2)cc(C(C)(C)C)c1O (stereo not given): > 100 µM
4. COc1cc2c(cc1OCCCN1CCN(c3cc(=O)oc4c(C)c(OC)ccc34)CC1)N=C[C@@H]1CCCN1C2=O: > 88.5 µM
5. CC(=N\N=C\c1ccccn1)/C(C)=N/N=C(C)/C(C)=N/N=C(C)/C(C)=N/N=C/c1ccccn1: > 100 µM

QUERY: Using the record for COc1ccc(C(=O)CC(c2ccc(OC)c(OC)c2)c2c(O)c3ccccc3oc2=O)cc1OC (stereo not given) , report its TGI.
RESULT: > 100 µM

QUERY: Using the record for CC1(C)N[P+]2(Nc3ccccc3O2)OC1=O (stereo not given) , report its TGI.
RESULT: > 100 µM

* * *

System: UACC-257 melanoma
Method Description: NCI tumour cell line growth inhibition, 48 h
Assay Metric: TGI (µM)
The figure you give is taken to be in µM; do not add the unit.

Here's what some known entries look like.
1. Cc1cc(NC(=O)NC(=O)c2ccccc2NC(=O)CN)ccc1Oc1ncc(Br)cn1: 38.4
2. O=C(/C=C\c1ccc2ccccc2n1)c1cc(Cl)ccc1O: 63.2
3. CCC(=O)c1ccc2c(c1)N(CCCN1CCN(CCO)CC1)c1ccccc1S2: 7.97
4. CN1C(=O)C(c2c[nH]c3ccccc23)=C(c2c(-c3c[nH]c4ccccc34)[nH]c3ccccc23)C1=O: 13.2
5. COc1ccc2c(c1)C(=O)c1c-2n(CCCN2CCOCC2)c(=O)c2cc([N+](=O)[O-])ccc12: 3.08
6. COc1cc2c3c(n(CCCNCCNCCCN)c(=O)c2cc1OC)-c1cc2c(cc1C3=O)OCO2: 30.9
7. Clc1ncnc2c1ncn2CCCCCCCCCCCCn1cnc2c(Cl)ncnc21: 11.9
8. OCCO[P+]1(OCCO)n2c3ccc2C(c2ccccc2)=C2C=CC(=N2)C(c2ccccc2)=c2ccc(n21)=C(c1ccccc1)C1=NC(=C3c2ccccc2)C=C1: 0.0545

QUERY: Using the record for CN(C)CCOC1(CC2CCCCC2)CCC(C(C)(C)C)CC1 (configuration not stated) , report its TGI.
RESULT: 11.8

QUERY: Using the record for COC(=O)[C@]12CC=C3O[C@@H]4OC5(CCCCC5)O[C@@H]4[C@H]3C1C(=O)C=CC2=O (some centres not stated) , report its TGI.
RESULT: 32.5

QUERY: Using the record for Cc1cc2c(cc1Br)C1(C)CCC(C)C1(C)O2 (configuration not stated) , report its TGI.
RESULT: 98.8

QUERY: Using the record for C=C(C)[C@@H]1CC[C@]2(C(=O)NCCNCCNCCN)CC[C@]3(C)[C@H](CC[C@@H]4[C@@]5(C)CCC(=O)C(C)(C)[C@@H]5CC[C@]43C)[C@@H]12 , report its TGI.
RESULT: 18.3

QUERY: Using the record for Cc1cc(N=C2C=C(Nc3cc(C)on3)C(=O)c3ccccc32)no1 , report its TGI.
RESULT: 47

QUERY: Using the record for COc1cc2c(cc1OC)-c1c(c3ccc([N+](=O)[O-])cc3c(=O)n1CCCN)C2=O , report its TGI.
RESULT: 14.6

QUERY: Using the record for CCCCCCCCC/C=C1\CC(CO)(COC(=O)c2ccccc2)OC1=O (configuration not stated) , report its TGI.
RESULT: 79.9

QUERY: Using the record for NC1=C(Cl)C(=O)c2ccccc2C1=O , report its TGI.
RESULT: 8.38

QUERY: Using the record for CC(=O)NC1=CC(=O)c2cc(C)cc(O)c2C1=O , report its TGI.
RESULT: 4.79

QUERY: Using the record for CCC(C)C1(O)OC2CC3(C)OC(=CC3=O)/C(C)=C\C3OC(=O)C1(C)C32 (configuration not stated) , report its TGI.
RESULT: 45.7

* * *

Tested on: PC-3 prostate
Method Description: NCI tumour cell line growth inhibition, 48 h
Label rule, in plain words: TGI of 10 µM and up is Fulfilled, under 10 µM is Not fulfilled.

1) Cc1ccc(F)cc1NC(=O)c1cc(Cl)ccc1Nc1ccccc1: Fulfilled
2) COc1ccc(-c2csc3c2-n2cccc2C3=O)cc1O: Fulfilled
3) N#Cc1c(N2CCN(c3ccc([N+](=O)[O-])cc3)CC2)[n+](=O)c2ccc(Cl)cc2n1[O-]: Fulfilled
4) OCCO[P+]1(OCCO)n2c3ccc2C(c2ccccc2)=C2C=CC(=N2)C(c2ccccc2)=c2ccc(n21)=C(c1ccccc1)C1=NC(=C3c2ccccc2)C=C1: Not fulfilled
5) COc1ccc(-n2c(C)nc3c(c(C)nn3-c3ccccc3)c2=O)cc1: Fulfilled
6) CCOC(=O)/C(=C\c1ccc(F)cc1)C(C)=O: Fulfilled

QUERY: Given the entry CC(C)C(C/C=C1\CC(CO)(COC(=O)CC(C(C)C)C(C)C)OC1=O)C(C)C (stereo not given) , answer whether its TGI meets or surpasses 10 µM.
RESULT: Fulfilled

QUERY: Given the entry COc1ccc(/C=C\c2cc(OC)c(OC)c(OC)c2)cc1OCC(=O)Nc1nc2ccc(OC(F)(F)F)cc2s1 , answer whether its TGI meets or surpasses 10 µM.
RESULT: Fulfilled
